The reported numbers originate from the NIST ThermoML archive (doi:10.1016/j.jct.2004.11.005).

assay: activity coefficient (dimensionless); of the first substance listed, at infinite dilution; xn = mol fraction of the nth substance listed; conditions: 269.99 K; Liquid; x1 = 0
assay.endpoint: activity coefficient
Answers are plain numbers.

Would you please look over these solved cases?
| compound | activity coefficient |
| --- | --- |
| C=CCC [1-butene] + CCCCCO | 2.87 |
| C/C=C/C [(E)-2-butene] + CCCCCO | 2.8 |
| C=CC [propene] + CCCCCO | 2.59 |
| C=CCC [1-butene] + CCCC(C)O | 3.03 |
| C/C=C/C [(E)-2-butene] + CCCC(C)O | 2.91 |

Fill in activity coefficient for each of the 2 compounds listed.
1. C=CC [propene] + CCCC(C)O
2. CCC [propane] + CCCCCO

2.77
3.07

###

assay: activity coefficient (dimensionless); of the first substance listed, at infinite dilution; xn = mol fraction of the nth substance listed; conditions: 320 K; Liquid; x1 = 0
For each of the compounds below, state its activity coefficient.
Give bare numbers.

Would you please look over these solved cases?
| compound | activity coefficient |
| --- | --- |
| CCC [propane] + CCC(O)CC | 2.81 |
| C=CC [propene] + CCC(O)CC | 2.42 |

Fill in activity coefficient for each of the 5 compounds listed.
1. C=CCC [1-butene] + CCC(O)CC
2. C/C=C/C [(E)-2-butene] + CCC(O)CC
3. CCCC [butane] + CCC(O)CC
4. C=C(C)C [2-methylpropene] + CCC(O)CC
5. CC(C)C [2-methylpropane] + CCC(O)CC

1. 2.61
2. 2.54
3. 2.92
4. 2.56
5. 3.09

###

For each of the molecules below, state its activity coefficient.
assay: activity coefficient (dimensionless); of the first substance listed, at infinite dilution; xn = mol fraction of the nth substance listed; conditions: 259.96 K; Liquid; x1 = 0
One number for each entry.

Would you please look over these solved cases?
| molecule | result |
| --- | --- |
| C/C=C/C [(E)-2-butene] + CCC(O)CC | 3.12 |
| CC(C)C [2-methylpropane] + CCC(O)CC | 3.66 |
| C=C(C)C [2-methylpropene] + CCC(O)CC | 3.25 |
| CCC [propane] + CCC(O)CC | 3.27 |

We now examine a further molecule.
Looking up C=CCC [1-butene] + CCC(O)CC , I found its activity coefficient recorded as 3.27

###

test: activity coefficient (dimensionless); of the first substance listed, at infinite dilution; xn = mol fraction of the nth substance listed; settings: 300 K; Liquid; x1 = 0
For each of the compounds below, state its activity coefficient.
Numbers only.

Would you please look over these solved cases?
| compound | result |
| --- | --- |
| C=CCC [1-butene] + CCC(O)CC | 2.86 |
| C=CC [propene] + CCC(O)CC | 2.63 |

Fill in activity coefficient for each of the 6 compounds listed.
1. CCC [propane] + CCC(O)CC
2. C/C=C/C [(E)-2-butene] + CCC(O)CC
3. C=CC=C [1,3-butadiene] + CCC(O)CC
4. C=C(C)C [2-methylpropene] + CCC(O)CC
5. CC(C)C [2-methylpropane] + CCC(O)CC
6. CCCC [butane] + CCC(O)CC

1: 3.01; 2: 2.77; 3: 2.63; 4: 2.82; 5: 3.35; 6: 3.15

###

For each of the compounds below, state its activity coefficient.
test: activity coefficient (dimensionless); of the first substance listed, at infinite dilution; xn = mol fraction of the nth substance listed; details: 249.94 K; Liquid; x1 = 0
Answers are plain numbers.

Would you please look over these solved cases?
| compound | activity coefficient |
| --- | --- |
| C=CCC [1-butene] + CCCC(C)O | 3.04 |
| C/C=C/C [(E)-2-butene] + CCCC(C)O | 2.9 |
| C=CC=C [1,3-butadiene] + CCCC(C)O | 3.01 |

We now examine a further compound.
Looking up C=C(C)C [2-methylpropene] + CCCC(C)O , I found its activity coefficient recorded as 3.1

###

test: activity coefficient (dimensionless); of the first substance listed, at infinite dilution; xn = mol fraction of the nth substance listed; settings: 330 K; Liquid; x1 = 0
Answer rule not met if activity coefficient is under 3, and rule met if it is 3 or more.

| compound | class.label |
| --- | --- |
| C=CC [propene] + CCCCCO | rule not met |
| C=CC=C [1,3-butadiene] + CCCC(C)O | rule not met |
| C/C=C/C [(E)-2-butene] + CCCC(C)O | rule not met |
| C=CCC [1-butene] + CCC(O)CC | rule not met |
| CC(C)C [2-methylpropane] + CCCC(C)O | rule met |
| CC(C)C [2-methylpropane] + CCCCCO | rule met |
| C=C(C)C [2-methylpropene] + CCCCCO | rule not met |
| C=CC=C [1,3-butadiene] + CCCCCO | rule not met |
| C=C(C)C [2-methylpropene] + CCCC(C)O | rule not met |
| CCC [propane] + CCC(O)CC | rule not met |

Does the reported activity coefficient for C/C=C/C [(E)-2-butene] + CCCCCO fall at or above the 3 mark?
rule not met

Does the reported activity coefficient for C=CCC [1-butene] + CCCC(C)O fall at or above the 3 mark?
rule not met

###

experiment: activity coefficient (dimensionless); of the first substance listed, at infinite dilution; xn = mol fraction of the nth substance listed; conditions: 330 K; Liquid; x1 = 0
For each of the compounds below, state its activity coefficient.
Answers are plain numbers.

Fill in activity coefficient for each of the 2 compounds listed.
1. CCCC [butane] + CCCC(C)O
2. CCCC [butane] + CCCCCO

2.94
3.19

###

experiment: activity coefficient (dimensionless); of the first substance listed, at infinite dilution; xn = mol fraction of the nth substance listed; conditions: 330 K; Liquid; x1 = 0
assay.endpoint: activity coefficient
Numbers only.

Would you please look over these solved cases?
| compound | activity coefficient |
| --- | --- |
| C=CCC [1-butene] + CCCCCO | 2.7 |
| CCC [propane] + CCCCCO | 3 |

We now examine a further compound.
Looking up C=CC [propene] + CCCC(C)O , I found its activity coefficient recorded as 2.37
